Organism: Mus musculus
assay.method.text: Antiinflammatory activity in mice assessed as inhibition of acetic acid-induced hyperpermeability at 10 uM relative to acetic acid
Assign yes to entries whose inhibition at 10 µM meets or exceeds 60%; assign no to the rest.

Please review the following examples before continuing.
smiles.str: O=c1c(O[C@@H]2O[C@H](CO)[C@@H](O)[C@H](O)[C@H]2O[C@@H]2O[C@H](CO)[C@@H](O)[C@H](O)[C@H]2O)c(-c2ccc(O)cc2)oc2cc(O)cc(O)c12
assigned.category: yes

smiles.str: COc1cc(OC)cc(Oc2c(OC)cc(OC)c3c2Oc2c(OC)cc(Oc4c(OC)cc(Oc5c(OC)cc(OC)c6c5Oc5c(OC)cc(OC)cc5O6)cc4OC)cc2O3)c1
assigned.category: no

smiles.str: Oc1cc(O)cc(Oc2c(O)cc(O)c3c2Oc2c(O)cc(O)cc2O3)c1
assigned.category: no

Please examine the following record next.
Enquiry: Check the entry Oc1cc(O)cc(Oc2c(O)cc(O)c3c2Oc2c(O)cc(Oc4c(O)cc(Oc5c(O)cc(O)c6c5Oc5c(O)cc(O)cc5O6)cc4O)cc2O3)c1 : does inhibition at 10 µM equal or exceed 60%?
Return: yes
